For each of the molecules below, state its cell viability.
- System: DLD1
- Procedure Summary: cell viability (CellTiter-Glo) relative to plate median (fraction of plate median); higher = more viable cells
- Run Parameters: 5 µM; treatment time 24 h; reporter: 7TFP
Response field accepts a number only; no unit should be typed.

Recorded cell viability of `CCCCCCCCCCCCOC(=O)[C@H]1OC(=O)[C@H](O)[C@H]1C(=O)OO` , please. 1.03

Recorded cell viability of `CC(=O)O[C@H]1CC[C@@]2(C)C(=CC[C@@H]3[C@@H]2CC[C@]2(C)C(=O)CC[C@@H]32)C1` , please. 1.02

Recorded cell viability of CCCC(C)C1(CC)C(=O)NC(=O)NC1=O (centres undefined) , please. 1

Recorded cell viability of `C/C(=C\c1csc(C)n1)[C@@H]1C[C@@H]2O[C@@H]2CCC[C@H](C)[C@H](O)[C@@H](C)C(=O)C(C)(C)[C@@H](O)CC(=O)O1` , please. 1.09

Recorded cell viability of CC(Cc1ccc(O)cc1)NCC(O)c1cc(O)cc(O)c1 (centres undefined) , please. 1.04

Recorded cell viability of `COC(=O)NC(=S)Nc1ccccc1NC(=S)NC(=O)OC` , please. 0.944

Recorded cell viability of `CC(=O)O[C@H]1CC[C@@]2(C)[C@H](CC[C@@H]3[C@@H]2CC[C@]2(C)[C@@H](C4=CC(=O)OC4)[C@@H](OC(C)=O)C[C@]32O)C1` , please. 0.633

Recorded cell viability of CCC(N)C(O)c1ccc(O)c(O)c1 (centres undefined) , please. 1.02

Recorded cell viability of `C=C[C@H]1CN2CC[C@H]1C[C@H]2[C@H](OC(=O)OCC)c1ccnc2ccc(OC)cc12` , please. 1.01

====

- Test system: DLD1
- Procedure Summary: cell viability (CellTiter-Glo) relative to plate median (fraction of plate median); higher = more viable cells
- Run Parameters: 5 µM; treatment time 24 h; reporter: 7TFP
For each of the compounds below, state its cell viability.
Response field accepts a number only; no unit should be typed.

Recorded cell viability of `CC1=NCCc2c1[nH]c1cc(O)ccc21` , please. 0.971

Recorded cell viability of `C[C@@H]1C[C@H](O)[C@@]2(O)[C@]13CC(=O)OC[C@@]2(C)[C@@](C)(O)C(=O)C3` , please. 1.11

Recorded cell viability of CNC(C)[C@H](O)c1ccccc1 (stereo partly drawn) , please. 0.976

Recorded cell viability of `CCCN1C[C@H](CSC)C[C@@H]2c3cccc4[nH]cc(c34)C[C@H]21` , please. 0.934

Recorded cell viability of `CC(=O)O[C@H]1[C@H]2[C@@H](OC(=O)Cc3ccccc3)[C@@H](C)C[C@]2(OC(C)=O)C(=O)/C(C)=C/[C@@H]2[C@H](CC[C@@]13CO3)C2(C)C` , please. 1.06

Recorded cell viability of CN1C(=O)CCS(=O)(=O)C1c1ccc(Cl)cc1 (stereo not drawn) , please. 1.01

Recorded cell viability of `COc1cc2c(cc1O)C[C@H]1c3c(cc(O)c(OC)c3-2)CCN1C` , please. 1.02

Recorded cell viability of CC(CC(C(N)=O)(c1ccccc1)c1ccccc1)N(C)C (stereo not drawn) , please. 0.995

Recorded cell viability of `COC(=O)[C@]1(C)CC[C@]2(C)CC[C@]3(C)C4=CCc5c(cc(O)c(O)c5C)[C@]4(C)CC[C@@]3(C)[C@@H]2C1` , please. 0.947

Recorded cell viability of `O=[N+]([O-])c1cc(O)c(O)c([N+](=O)[O-])c1` , please. 0.891

Recorded cell viability of `COc1ccc2c(c1OC)C(=O)O[C@H]2[C@H]1c2cc3c(cc2CCN1C)OCO3` , please. 1.06

Recorded cell viability of `COc1ccc2c3c([nH]c2c1)C(C)=NCC3` , please. 1.03

Recorded cell viability of `CC(C)C[C@H](CN)CC(=O)O` , please. 1.03

Recorded cell viability of `CN1[C@@H]2CC[C@H]1C[C@@H](OC(=O)[C@H](CO)c1ccccc1)C2` , please. 1.06

Recorded cell viability of `C=CCSSCC=C` , please. 1.05

Recorded cell viability of `Cc1ccc(/N=C/N(C)/C=N/c2ccc(C)cc2C)c(C)c1` , please. 1.01

Recorded cell viability of CNC(C)C(O)c1ccccc1 (stereo not drawn) , please. 1.08

Recorded cell viability of `C[C@]12CCC(=O)C[C@@H]1CC[C@@H]1[C@@H]2CC[C@]2(C)C(=O)CC[C@@H]12` , please. 0.895

Recorded cell viability of `CCOC(=O)c1cncn1[C@H](C)c1ccccc1` , please. 1.04

Recorded cell viability of `O=c1[nH]c2ccccc2n1CCCN1CCC(n2c(=O)[nH]c3cc(Cl)ccc32)CC1` , please. 0.898

Recorded cell viability of `CC(C)C[C@H]1C(=O)N2CCC[C@H]2[C@]2(O)O[C@](NC(=O)[C@@H]3C=C4c5cccc6[nH]c(Br)c(c56)C[C@H]4N(C)C3)(C(C)C)C(=O)N12` , please. 1.05

Recorded cell viability of `C[C@H]1C(=O)O[C@@H]2CCN3CC=C(COC(=O)[C@](C)(O)[C@]1(C)O)[C@H]23` , please. 1

Recorded cell viability of `CC(C)=CCC[C@]1(C)C=Cc2c(O)c3c(c(CC=C(C)C)c2O1)O[C@]12C(=C[C@@H]4C[C@H]1C(C)(C)O[C@@]2(C/C=C(/C)C(N)=O)C4=O)C3=O` , please. 0.976

Recorded cell viability of `CCn1cc(C(=O)O)c(=O)c2cc3c(cc21)OCO3` , please. 0.96

Recorded cell viability of CNC1CC(N)C(O)C(OC2OC(CO)C(O)C3OC4(OC(C(N)CO)C(O)C(O)C4O)OC23)C1O (stereo not drawn) , please. 0.983

Recorded cell viability of CCCCCCCCCCCC[C@@H](O)[C@H]1CC[C@H]([C@H](O)CCCC[C@H](O)CCCCC[C@@H](O)CC2=CC(C)OC2=O)O1 (stereo partly drawn) , please. 0.926

Recorded cell viability of `CN[C@@H]1C[C@H]2O[C@@](C)([C@@H]1OC)n1c3ccccc3c3c4c(c5c6ccccc6n2c5c31)C(=O)NC4` , please. 0.837

Recorded cell viability of `Cc1ccc(-c2nc3ccc(C)cn3c2CC(=O)N(C)C)cc1` , please. 1.02

Recorded cell viability of `NC(=O)CN1CCCC1=O` , please. 1.02

Recorded cell viability of `CC(C)(C#N)O[C@@H]1O[C@H](CO)[C@@H](O)[C@H](O)[C@H]1O` , please. 0.945

Recorded cell viability of `C[C@]12CC[C@H]3[C@@H](CCC4=CC(=O)CC[C@@]43C)[C@@H]1CC[C@@H]2O` , please. 1.03

Recorded cell viability of `O=[N+]([O-])O[C@H]1CO[C@H]2[C@@H]1OC[C@H]2O[N+](=O)[O-]` , please. 1

Recorded cell viability of `NC(=O)c1cc([N+](=O)[O-])cc([N+](=O)[O-])c1` , please. 1.01

Recorded cell viability of `C=CCc1ccc2c(c1)OCO2` , please. 0.985

Recorded cell viability of `CSc1nc(NC(C)C)nc(NC(C)C)n1` , please. 0.973

Recorded cell viability of `C[C@@H]1C[C@H](C)C[C@H](C)[C@@H](O)CC(=O)O[C@H]([C@@H]2CCC[C@H]2C(=O)O)C/C=C/C=C(/C#N)[C@H](O)[C@@H](C)C1` , please. 0.894

Recorded cell viability of CC1C=CC=CCCC=CC=CC=CC=CC(OC2OC(C)C(O)C(N)C2O)CC2OC(O)(CC(O)C(O)CCC(O)CC(O)CC(O)CC(=O)OC(C)C(C)C1O)CC(O)C2C(=O)O (stereo not drawn) , please. 0.932

Recorded cell viability of `CCNc1nc(Cl)nc(NCC)n1` , please. 0.955
